target: human Claudin-6 (CLDN6) (human) (UniProt P56747); experiment: FACS, limiting dilution, OV90 cells
measured attribute: FACS signal at 1000 nM

{"binder": "AB S7 (antibody, V domains shown) VH: QVQLVQSGAEVKKPGASVKMSCKASGYTFTTYTIHWVRQAPGQGLEWIGFINPSSGYTEYAQKFQGRVTLTADKSTSTVYMELSSLRSEDTAVYFCANGDYYVAYWGQGTLVTVSS VL: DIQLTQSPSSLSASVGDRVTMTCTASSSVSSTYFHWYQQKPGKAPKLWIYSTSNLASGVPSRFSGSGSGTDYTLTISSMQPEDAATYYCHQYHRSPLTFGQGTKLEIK", "measured attribute": "FACS signal at 1000 nM", "assay value": 53900}
{"binder": "AB3-7 (antibody, V domains shown, humanized; also called AB23; humanized AB3-7) VH: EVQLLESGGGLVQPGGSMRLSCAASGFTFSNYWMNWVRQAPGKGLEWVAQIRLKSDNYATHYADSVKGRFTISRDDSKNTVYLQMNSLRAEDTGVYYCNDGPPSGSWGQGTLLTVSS VL: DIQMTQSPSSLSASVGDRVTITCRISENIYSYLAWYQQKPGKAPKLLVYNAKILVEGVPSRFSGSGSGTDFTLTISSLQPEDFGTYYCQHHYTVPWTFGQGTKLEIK", "measured attribute": "FACS signal at 1000 nM", "assay value": 9390}
{"binder": "AB1-11 (antibody, V domains shown, humanized; also called humanized AB1-11; HU-11) VH: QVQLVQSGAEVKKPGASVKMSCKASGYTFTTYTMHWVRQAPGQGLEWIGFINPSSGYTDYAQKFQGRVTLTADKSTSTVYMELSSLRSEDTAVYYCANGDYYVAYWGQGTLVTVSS VL: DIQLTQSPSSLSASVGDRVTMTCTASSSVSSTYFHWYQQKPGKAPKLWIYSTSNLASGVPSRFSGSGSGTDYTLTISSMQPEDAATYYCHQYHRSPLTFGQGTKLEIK", "measured attribute": "FACS signal at 1000 nM", "assay value": 72100}

Input line: Any idea what FACS signal at 1000 nM was measured for AB S12 (antibody, V domains shown) VH: QVQLVQSGAEVKKPGASVKMSCKASGYTFTTYTMHWVRQAPGQGLEWIGFINPSSGYTEYAQKFQGRVTLTADKSTSTVYMELSSLRSEDTAVYFCANGDYYVGYWGQGTLVTVSS VL: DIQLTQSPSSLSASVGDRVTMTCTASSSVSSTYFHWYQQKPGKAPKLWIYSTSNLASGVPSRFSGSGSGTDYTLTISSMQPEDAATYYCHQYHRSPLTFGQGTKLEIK ?
Output line: 83400

Input line: Look up FACS signal at 1000 nM: AB S4 (antibody, V domains shown) VH: EVQLLESGGGLVQPGGSMRLSCAASGFTFSNYWMNWVRQAPGKGLEWIAQIRLKSDNYATHYTDSVKGRFTISRDDSKSTVYLQMNSLRAEDTGTYYCNDGPPSGSWGQGTLLTVSS VL: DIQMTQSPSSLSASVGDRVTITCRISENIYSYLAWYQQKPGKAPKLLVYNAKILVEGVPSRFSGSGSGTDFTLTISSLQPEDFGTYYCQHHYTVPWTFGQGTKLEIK
Output line: 42000

Input line: Request the reported FACS signal at 1000 nM associated with AB S6 (antibody, V domains shown) VH: EVQLLESGGGLVQPGGSMRLSCAASGFTFSNYWMNWVRQAPGKGLEWLAQIRLKSDNYVTHYADSVKGRFTISRDDSKRTVYLQMNSLRAEDTGTYYCNDGPPSGSWGQGTLLTVSS VL: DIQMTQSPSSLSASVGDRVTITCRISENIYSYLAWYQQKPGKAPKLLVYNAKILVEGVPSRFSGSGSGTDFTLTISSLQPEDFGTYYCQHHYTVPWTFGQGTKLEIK
Output line: 76600
